The measured values listed here are drawn from patent US20200268728A1.

- System: SK-OV-3
- MEASUREMENT PROTOCOL: Sphere-forming ability of cultured cancer cell lines (Test Example 10)
- Format: cell-based
- DETAILS: Homo sapiens, 96 h; SK-OV-3 ovarian cancer cell line, 4 days
READOUT NAME: IC50

Data point: `O=C(Nc1cn(Cc2cc(F)c(F)c(F)c2)cn1)c1cnc(CO)c(C(F)F)c1` ; IC50 = > 10 µM

* * *

- Test system: A549
- MEASUREMENT PROTOCOL: Sphere-forming ability of cultured cancer cell lines (Test Example 10)
- Assay type: cell-based
- DETAILS: Homo sapiens, 96 h; A549 lung cancer cell line, 4 days
pIC50: −log10 of the molar value.
READOUT NAME: pIC50

Sample `O=C(Nc1cn(Cc2cc(F)c(F)c(F)c2)cn1)c1cnc(CO)c(C(F)F)c1` ; pIC50 observed: < 5.00

* * *

- Tested on: SW480
- MEASUREMENT PROTOCOL: Sphere-forming ability of cultured cancer cell lines (Test Example 10)
- Format: cell-based
- DETAILS: Homo sapiens, 96 h; SW480 colon cancer cell line, 4 days
READOUT NAME: pIC50
In textbook form, pIC50 equals minus log to base ten of the concentration in mol/L.

Record summary for `O=C(Nc1cn(Cc2cc(F)c(F)c(F)c2)cn1)c1cnc(CO)c(C(F)F)c1` : reported pIC50 = 8.40

* * *

- System: Hep G2
- MEASUREMENT PROTOCOL: Sphere-forming ability of cultured cancer cell lines (Test Example 10)
- Type: cell-based
- DETAILS: Homo sapiens, HepG2, 96 h; Hep G2 liver cancer cell line, 4 days
READOUT NAME: pIC50
Lab note: report pIC50 as minus log10 of the concentration in molar units, number only.

O=C(Nc1cn(Cc2cc(F)c(F)c(F)c2)cn1)c1cnc(CO)c(C(F)F)c1 [Example 24] has a reported pIC50 of 7.14

* * *

- Tested on: SW 780
- MEASUREMENT PROTOCOL: Sphere-forming ability of cultured cancer cell lines (Test Example 10)
- Assay type: cell-based
- DETAILS: Homo sapiens, SW780, 96 h; SW 780 bladder cancer cell line, 4 days
READOUT NAME: pIC50
pIC50 is defined as minus the log10 of a concentration measured in mol/L.

Known value: SW 780 pIC50 of the compound `O=C(Nc1cn(Cc2cc(F)c(F)c(F)c2)cn1)c1cnc(CO)c(C(F)F)c1` equals 7.25

* * *

- Test system: HT-1080
- MEASUREMENT PROTOCOL: Sphere-forming ability of cultured cancer cell lines (Test Example 10)
- Format: cell-based
- DETAILS: Homo sapiens, 96 h; HT-1080 soft tissue tumor cell line, 4 days
READOUT NAME: IC50

IC50 for `O=C(Nc1cn(Cc2cc(F)c(F)c(F)c2)cn1)c1cnc(CO)c(C(F)F)c1` is > 10 µM

* * *

- Tested on: HPAF-II
- MEASUREMENT PROTOCOL: Sphere-forming ability of cultured cancer cell lines (Test Example 10)
- Assay type: cell-based
- DETAILS: Homo sapiens, 96 h; HPAF-II pancreatic cancer cell line, 4 days
- Source text: […]
READOUT NAME: pIC50
The read-out pIC50 is expressed as -log10 of concentration in moles per litre.

Reported pIC50 for O=C(Nc1cn(Cc2cc(F)c(F)c(F)c2)cn1)c1cnc(CO)c(C(F)F)c1 [Example 24] was 6.12
